molecules and their reported inhibition at 10 µM
test system: MDA-MB-231/ATCC; test: NCI60 antitumor screening; format: cell-based, human; conditions: Homo sapiens; 10 μM single dose; MDA-MB-231/ATCC (breast cancer); read-out: growth inhibition percent (GI%)
# value in %; strip the unit string

Solved cases (2 shown):
molecule="CN1CCN(c2nc(SCc3ccc(F)cc3)nc(-c3ccc(F)cc3)c2C#N)CC1 [4j]" numeric_readout=45.8
molecule="CN1CCN(c2nc(SCc3ccc([N+](=O)[O-])cc3)nc(-c3ccc(F)cc3)c2C#N)CC1 [4k]" numeric_readout=35.1

*Q* Recorded inhibition at 10 µM of CN1CCN(c2nc(SCc3ccccc3)nc(-c3ccc(F)cc3)c2C#N)CC1 [4i] , please.
*A* 15.9

*Q* Recorded inhibition at 10 µM of Cc1ccc(CSc2nc(-c3ccc(F)cc3)c(C#N)c(N3CCN(C)CC3)n2)cc1 [4l] , please.
*A* 28.9

---

test system: SF-539; assay: NCI60 antitumor screening; assay type: cell-based, human; conditions: 10 μM one-dose, Table 1
assay-endpoint: GI%

entry_smiles=CN1CCN(c2nc(SCc3ccccc3)nc(-c3ccc(F)cc3)c2C#N)CC1 result="— (GI value > 70%)"
entry_smiles=CN1CCN(c2nc(SCc3ccc(F)cc3)nc(-c3ccc(F)cc3)c2C#N)CC1 result="— (GI value > 70%)"
entry_smiles=N#Cc1c(-c2ccc(F)cc2)nc(SCc2ccc(F)cc2)[nH]c1=O result="— (GI value > 70%)"
entry_smiles=N#Cc1c(-c2ccc(F)cc2)nc(SCc2ccc([N+](=O)[O-])cc2)nc1N1CCOCC1 result=73.77%
entry_smiles=N#Cc1c(-c2ccc(F)cc2)nc(SCc2ccc(F)cc2)nc1N1CCOCC1 result="— (GI value > 70%)"

*Q* Give recorded GI% with SF-539 for the following compound: Cc1ccc(CSc2nc(-c3ccc(F)cc3)c(C#N)c(N3CCOCC3)n2)cc1
*A* — (GI value > 70%)

---

test system: K-562; experiment: NCI60 antitumor screening; type: cell-based, human; conditions: Homo sapiens; 10 μM single dose; (leukaemia); read-out: growth inhibition percent (GI%)
Lab note: compare inhibition at 10 µM against 70%. Equal or greater, write 1. Smaller, write 0.

See these solved cases before continuing.
entry_smiles=Cc1ccc(CSc2nc(-c3ccc(F)cc3)c(C#N)c(N3CCNCC3)n2)cc1 test_system=K-562 group_label=0
entry_smiles=N#Cc1c(-c2ccc(F)cc2)nc(SCc2ccccc2)nc1N1CCN(c2ccccc2)CC1 test_system=K-562 group_label=0

*Q* Assess whether reported inhibition at 10 µM for N#Cc1c(-c2ccc(F)cc2)nc(SCc2ccc([N+](=O)[O-])cc2)nc1N1CCNCC1 sits at 70% or higher.
*A* 0

*Q* Assess whether reported inhibition at 10 µM for N#Cc1c(-c2ccc(F)cc2)nc(SCc2ccc(F)cc2)nc1N1CCNCC1 sits at 70% or higher.
*A* 1

*Q* Assess whether reported inhibition at 10 µM for CN1CCN(c2nc(SCc3ccccc3)nc(-c3ccc(F)cc3)c2C#N)CC1 sits at 70% or higher.
*A* 1

*Q* Assess whether reported inhibition at 10 µM for CN1CCN(c2nc(SCc3ccc([N+](=O)[O-])cc3)nc(-c3ccc(F)cc3)c2C#N)CC1 sits at 70% or higher.
*A* 0

*Q* Assess whether reported inhibition at 10 µM for N#Cc1c(-c2ccc(F)cc2)nc(SCc2ccc([N+](=O)[O-])cc2)nc1N1CCN(c2ccccc2)CC1 sits at 70% or higher.
*A* 0

*Q* Assess whether reported inhibition at 10 µM for N#Cc1c(-c2ccc(F)cc2)nc(SCc2ccc(F)cc2)nc1N1CCN(c2ccccc2)CC1 sits at 70% or higher.
*A* 0

*Q* Assess whether reported inhibition at 10 µM for Cc1ccc(CSc2nc(-c3ccc(F)cc3)c(C#N)c(N3CCN(C)CC3)n2)cc1 sits at 70% or higher.
*A* 0
